From: paper PMC7782162

target: TvaCA1 (Trichomonas vaginalis); construct: gene TVAG_005270; recombinant from E. coli BL21 Star (DE3), Ni2+-NTA purified; beta-CA homodimer with two active sites; experiment: stopped-flow CO2 hydrase assay; assay type: biochemical; settings: read-out: KI^a (nM) / TvaCA1^c
Sequence (A2ENQ8 1-182): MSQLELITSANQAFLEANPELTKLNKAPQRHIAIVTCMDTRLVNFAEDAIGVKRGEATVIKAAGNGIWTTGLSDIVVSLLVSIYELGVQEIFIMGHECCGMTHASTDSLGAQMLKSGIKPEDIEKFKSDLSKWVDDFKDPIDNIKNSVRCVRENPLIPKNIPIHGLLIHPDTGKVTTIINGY
Ki under 4000 nM gets Y, anything at or over 4000 nM gets N.

>>> df
                                   compound  assigned_class
0                     Cc1ccc(S(N)(=O)=O)cc1               Y
1               NS(=O)(=O)c1cc(Cl)cc(Cl)c1O               N
2  NS(=O)(=O)c1cc(Cl)c(Cl)c(S(N)(=O)=O)c1 [DCP, dichlorophenamide]               N
3  NS(=O)(=O)c1nnc(NS(=O)(=O)c2ccccc2)s1 [BZA, benzolamide]               N
4                      Nc1nnc(S(N)(=O)=O)s1               Y
5  CCN[C@H]1CN(CCCOC)S(=O)(=O)c2sc(S(N)(=O)=O)cc21 [BRZ, brinzolamide]               N
6            NS(=O)(=O)c1cccc(S(N)(=O)=O)c1               Y
7  NS(=O)(=O)Cc1noc2ccccc12 [ZNS, zonisamide]               N
8  NS(=O)(=O)c1ccc(CCNS(=O)(=O)c2ccc([N+](=O)[O-])cc2CO)cc1               Y
9  CC1(C)O[C@@H]2[C@@H](CO[C@@]3(COS(N)(=O)=O)OC(C)(C)O[C@@H]23)O1 [TPM, topiramate]               N
